- target.entity: CYP3A4 (Homo sapiens, UniProt P08684)
- Sequence (P08684 whole entry): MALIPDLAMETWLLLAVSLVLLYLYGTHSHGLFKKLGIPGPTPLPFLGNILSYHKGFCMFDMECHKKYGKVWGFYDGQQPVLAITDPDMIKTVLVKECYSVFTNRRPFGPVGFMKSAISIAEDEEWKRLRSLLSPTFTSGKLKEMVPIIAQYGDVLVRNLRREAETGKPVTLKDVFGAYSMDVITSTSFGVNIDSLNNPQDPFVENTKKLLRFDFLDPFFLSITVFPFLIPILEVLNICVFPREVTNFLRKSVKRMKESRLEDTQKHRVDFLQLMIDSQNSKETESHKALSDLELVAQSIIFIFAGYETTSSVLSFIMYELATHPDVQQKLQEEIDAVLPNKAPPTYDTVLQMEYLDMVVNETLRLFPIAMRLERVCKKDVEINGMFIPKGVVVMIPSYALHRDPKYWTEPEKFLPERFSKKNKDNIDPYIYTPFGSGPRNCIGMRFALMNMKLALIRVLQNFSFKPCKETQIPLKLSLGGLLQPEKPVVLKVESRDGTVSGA
- test: Inhibition of CYP3A4 at 5 uM
- Assay type: ADME
Exercise: state measured inhibition at 5 µM for each of the molecules provided.
Give bare numbers, in %.

compound.string	target.entity	measured.quantity	observed.result
COc1ccc2c(-c3cnn(-c4ccccc4)c3)ccnc2c1	CYP3A4 (Homo sapiens, UniProt P08684)	inhibition at 5 µM	35

List inhibition at 5 µM for every entry below, keeping the order given.
1. c1ccc(-n2cc(-c3ccnc4ccccc34)cn2)cc1
2. CCN(CC)C(=O)Oc1ccc2c(-c3cnn(-c4ccccc4)c3)ccnc2c1

1: 38; 2: 35

====

- target.entity: Metabotropic glutamate receptor 4 (Homo sapiens, UniProt Q14833)
- Sequence (Q14833 whole entry): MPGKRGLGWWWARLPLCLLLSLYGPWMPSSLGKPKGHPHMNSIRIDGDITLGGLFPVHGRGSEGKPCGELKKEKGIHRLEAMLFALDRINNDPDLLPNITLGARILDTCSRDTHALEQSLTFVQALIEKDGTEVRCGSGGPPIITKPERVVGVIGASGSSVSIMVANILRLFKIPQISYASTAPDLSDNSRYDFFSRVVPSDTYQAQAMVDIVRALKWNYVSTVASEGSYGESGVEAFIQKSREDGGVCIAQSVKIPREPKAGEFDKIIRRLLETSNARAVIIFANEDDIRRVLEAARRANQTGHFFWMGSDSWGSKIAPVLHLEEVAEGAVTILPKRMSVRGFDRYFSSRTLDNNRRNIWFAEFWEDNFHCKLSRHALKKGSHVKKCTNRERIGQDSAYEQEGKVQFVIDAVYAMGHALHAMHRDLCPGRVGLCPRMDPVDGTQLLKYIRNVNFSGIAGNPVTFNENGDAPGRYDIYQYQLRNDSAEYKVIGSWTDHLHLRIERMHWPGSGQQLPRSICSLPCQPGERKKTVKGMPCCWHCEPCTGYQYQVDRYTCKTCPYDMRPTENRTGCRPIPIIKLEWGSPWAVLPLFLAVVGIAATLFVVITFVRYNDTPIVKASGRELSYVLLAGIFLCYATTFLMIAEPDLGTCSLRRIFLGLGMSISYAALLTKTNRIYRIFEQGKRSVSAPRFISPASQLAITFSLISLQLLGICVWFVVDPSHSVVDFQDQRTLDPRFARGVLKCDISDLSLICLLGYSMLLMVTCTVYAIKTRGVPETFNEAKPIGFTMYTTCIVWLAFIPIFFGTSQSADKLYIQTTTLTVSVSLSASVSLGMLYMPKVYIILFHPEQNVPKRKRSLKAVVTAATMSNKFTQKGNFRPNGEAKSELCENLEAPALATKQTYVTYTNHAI
- test: Positive allosteric modulation of human mGlu4 receptor expressed in BHK cells assessed as potentiation of glutamate-induced calcium mobilization by FLIPR analysis relative to PHCCC
- Format: functional, cell-based
measured.quantity: Emax

Worked set:
compound.string	Emax
c1ccc(-n2cc(-c3ccncc3)cn2)cc1	39%
c1ccc2c(-c3cn[nH]c3)ccnc2c1	6%
Cc1nccc(-c2cnn(-c3ccccc3)c2)c1C	40%
CCN(CC)C(=O)Oc1ccc2c(-c3cnn(-c4ccccc4)c3)ccnc2c1	120%
O=C(Oc1ccc2c(-c3cnn(-c4ccccc4)c3)ccnc2c1)N1CCOCC1	84%

List Emax for every entry below, keeping the order given.
1. c1ccc(-n2cc(-c3c[nH]c4ccccc34)cn2)cc1
2. CN(C)C(=O)COc1ccc2c(-c3cnn(-c4ccccc4)c3)ccnc2c1

1: 44%; 2: 11%

List Emax for every entry below, keeping the order given.
1. COc1ccc2c(-c3cnn(-c4ccccc4)c3)ccnc2c1
2. Cc1nn(-c2ccccc2)c(C)c1-c1ccnc2ccccc12
3. CN(C)CCOc1ccc2c(-c3cnn(-c4ccccc4)c3)ccnc2c1
4. O=C(Oc1ccc2c(-c3cnn(-c4ccccc4)c3)ccnc2c1)N1CCCCC1
5. Clc1ccc2c(-c3cnn(-c4ccccc4)c3)ccnc2c1
6. Fc1ccccc1-n1cc(-c2ccnc3ccccc23)cn1
7. CC(=O)N1CCN(CCOc2ccc3c(-c4cnn(-c5ccccc5)c4)ccnc3c2)CC1

["79%", "150%", "23%", "130%", "100%", "70%", "75%"]

If you can, please state the reported Emax value of `O=C(Oc1ccc2c(-c3cnn(-c4ccccc4)c3)ccnc2c1)N1CCCC1` .
120%
